// reported CTG-3D luminescence at 96 h per item
Test system: HCI-001 (organoid from a triple-negative breast cancer xenograft)
experimentalDetails: CTG-3D luminescence at 96 h relative to day-0 seeding control (ratio to day 0); higher = more growth / less cytotoxicity; PDxO 3D drug screen (set 2), 96 h, CTG-3D normalised to day-0 seeding control.
assaySetup: 0.1 µM; days in culture: 365
Keep the answer to the number alone.

As a guide, the following entries are already answered.
molecule	CTG-3D luminescence at 96 h
CS(=O)(=O)CCNCc1ccc(-c2ccc3ncnc(Nc4ccc(OCc5cccc(F)c5)c(Cl)c4)c3c2)o1 [lapatinib]	2.56
CC(=O)O[C@@]12CO[C@@H]1C[C@H](O)[C@@]1(C)C(=O)[C@H](O)C3=C(C)[C@@H](OC(=O)[C@H](O)[C@@H](NC(=O)OC(C)(C)C)c4ccccc4)C[C@@](O)([C@@H](OC(=O)c4ccccc4)[C@H]21)C3(C)C [docetaxel]	1.79
CC(=O)c1c(C)c2cnc(Nc3ccc(N4CCNCC4)cn3)nc2n(C2CCCC2)c1=O [palbociclib]	2.64
Cc1c(CN2CCN(C(=O)[C@H](C)O)CC2)sc2c(N3CCOCC3)nc(-c3cnc(N)nc3)nc12 [apitolisib]	1.76
COc1cccc2c1C(=O)c1c(O)c3c(c(O)c1C2=O)C[C@@](O)(C(=O)CO)C[C@@H]3O[C@H]1C[C@H](N)[C@@H](O)[C@H](C)O1 [epirubicin]	1.83

Prompt: Param item = C[C@@H](Nc1cc(F)cc(F)c1)c1cc(C(=O)N(C)C)cc2c(=O)cc(N3CCOCC3)oc12 [AZD-8186] ; retrieve measured CTG-3D luminescence at 96 h.
Completion: 2.83

* * *

System: HCI-025 (organoid from a breast cancer xenograft)
experimentalDetails: CTG-3D luminescence at 96 h relative to day-0 seeding control (ratio to day 0); higher = more growth / less cytotoxicity; PDxO 3D drug screen, 96 h, CTG-3D normalised to day-0 seeding control.
assaySetup: 0.00025 µM; days in culture: 172
observedProperty: CTG-3D luminescence at 96 h
Keep the answer to the number alone.

compound	CTG-3D luminescence at 96 h
C=CC(=O)N1CCC[C@@H](n2nc(-c3ccc(Oc4ccccc4)cc3)c3c(N)ncnc32)C1 [ibrutinib]	1.2
CN(Cc1cnc2nc(N)nc(N)c2n1)c1ccc(C(=O)N[C@@H](CCC(=O)O)C(=O)O)cc1 [methotrexate]	2.07

Prompt: Param item = O=C(/C=C/c1cccnc1)NCCCCC1CCN(C(=O)c2ccccc2)CC1 [FK866] ; retrieve measured CTG-3D luminescence at 96 h.
Completion: 0.0766

* * *

// reported CTG-3D luminescence at 96 h per item
System: HCI-012 (organoid from a breast cancer xenograft)
experimentalDetails: CTG-3D luminescence at 96 h relative to day-0 seeding control (ratio to day 0); higher = more growth / less cytotoxicity; PDxO 3D drug screen (set 2), 96 h, CTG-3D normalised to day-0 seeding control.
assaySetup: 0.1 µM; days in culture: 214
Keep the answer to the number alone.

compound	numericReadout
Cc1c(CN2CCN(C(=O)[C@H](C)O)CC2)sc2c(N3CCOCC3)nc(-c3cnc(N)nc3)nc12 [apitolisib]	1.74

Prompt: Param item = CS(=O)(=O)CCNCc1ccc(-c2ccc3ncnc(Nc4ccc(OCc5cccc(F)c5)c(Cl)c4)c3c2)o1 [lapatinib] ; retrieve measured CTG-3D luminescence at 96 h.
Completion: 2.07

Prompt: Param item = CO[C@H]1C[C@@H]2CC[C@@H](C)[C@@](O)(O2)C(=O)C(=O)N2CCCC[C@H]2C(=O)O[C@H]([C@H](C)C[C@@H]2CC[C@@H](O)[C@H](OC)C2)CC(=O)[C@H](C)/C=C(\C)[C@@H](O)[C@@H](OC)C(=O)[C@H](C)C[C@H](C)/C=C/C=C/C=C/1C [rapamycin] ; retrieve measured CTG-3D luminescence at 96 h.
Completion: 1.12

Prompt: Param item = Nc1cc(C(F)(F)F)c(-c2cc(N3CCOCC3)nc(N3CCOCC3)n2)cn1 [buparlisib] ; retrieve measured CTG-3D luminescence at 96 h.
Completion: 2.51

Prompt: Param item = O=C(c1cc(Cc2n[nH]c(=O)c3ccccc23)ccc1F)N1CCN(C(=O)C2CC2)CC1 [olaparib] ; retrieve measured CTG-3D luminescence at 96 h.
Completion: 1.89

Prompt: Param item = CO[C@H]1C[C@@H]2CC[C@@H](C)[C@@](O)(O2)C(=O)C(=O)N2CCCC[C@H]2C(=O)O[C@H]([C@H](C)C[C@@H]2CC[C@@H](OCCO)[C@H](OC)C2)CC(=O)[C@H](C)/C=C(\C)[C@@H](O)[C@@H](OC)C(=O)[C@H](C)C[C@H](C)/C=C/C=C/C=C/1C [everolimus] ; retrieve measured CTG-3D luminescence at 96 h.
Completion: 1.84
